Target: Carbonic anhydrase 7 (Homo sapiens, UniProt P43166)
Sequence (P43166 whole entry): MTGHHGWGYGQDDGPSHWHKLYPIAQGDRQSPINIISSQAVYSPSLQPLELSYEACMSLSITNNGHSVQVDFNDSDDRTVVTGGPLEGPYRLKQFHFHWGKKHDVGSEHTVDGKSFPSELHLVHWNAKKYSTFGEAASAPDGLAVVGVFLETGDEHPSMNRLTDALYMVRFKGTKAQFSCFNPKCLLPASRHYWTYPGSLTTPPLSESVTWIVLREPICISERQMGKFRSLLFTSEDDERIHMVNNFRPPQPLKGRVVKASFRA
Property Label: Ki (nM)
Value expressed in nM; do not type the unit.

# query: Ki | item NS(=O)(=O)c1cc(C(=O)O)c(Cl)cc1Cl | system: Carbonic anhydrase 7 (Homo sapiens, UniProt P43166)
6.63

----------
Target: Carbonic anhydrase 6 (Homo sapiens)
Sequence (P23280 whole entry): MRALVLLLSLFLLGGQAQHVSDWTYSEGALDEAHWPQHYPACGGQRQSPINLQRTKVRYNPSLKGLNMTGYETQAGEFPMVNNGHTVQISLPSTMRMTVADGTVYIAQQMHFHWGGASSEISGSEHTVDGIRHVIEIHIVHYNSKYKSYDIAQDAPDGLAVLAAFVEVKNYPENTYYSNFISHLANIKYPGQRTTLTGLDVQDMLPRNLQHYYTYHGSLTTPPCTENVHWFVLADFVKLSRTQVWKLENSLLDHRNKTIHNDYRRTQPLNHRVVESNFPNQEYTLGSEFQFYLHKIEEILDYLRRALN
Property Label: Ki (nM)
Value expressed in nM; do not type the unit.

What Ki value was documented for this molecule, NS(=O)(=O)c1cc(C(=O)O)c(Cl)cc1Cl ?
8.51

----------
Target: Carbonic anhydrase 14 (Homo sapiens, UniProt Q9ULX7)
Sequence (Q9ULX7 whole entry): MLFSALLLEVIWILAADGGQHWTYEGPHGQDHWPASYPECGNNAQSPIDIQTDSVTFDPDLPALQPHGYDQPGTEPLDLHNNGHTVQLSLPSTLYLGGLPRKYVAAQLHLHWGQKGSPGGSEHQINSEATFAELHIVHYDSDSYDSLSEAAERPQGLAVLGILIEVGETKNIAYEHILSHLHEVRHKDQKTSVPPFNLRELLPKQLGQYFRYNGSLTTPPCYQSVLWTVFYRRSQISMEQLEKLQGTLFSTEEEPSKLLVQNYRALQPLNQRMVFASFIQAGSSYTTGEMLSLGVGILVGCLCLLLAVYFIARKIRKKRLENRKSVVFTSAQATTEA
Assay: Inhibition of full-length recombinant human CA XIV-catalysed CO2 hydration by stopped-flow technique
Property Label: Ki (nM)
Value expressed in nM; do not type the unit.

What Ki value was documented for this compound, NS(=O)(=O)c1cc(C(=O)O)c(Cl)cc1Cl ?
11.9
